Test system: BDF1 mice, P388 leukemia ip, median survival T/C
Test: NCI In Vivo Anticancer Drug Screen. Data for tumor model P388 Leukemia (intraperitoneal) in B6D2F1 (BDF1) mice
Settings: endpoint: median survival time; dose: 200.0 mg/kg/injection; schedule: Q01DX005 (ip); vehicle: saline with Tween-80; higher = longer survival
Procedure: The antitumor activity of compounds was measured in mice bearing transplantable tumors. Survival or tumor size were measured and the results are expressed as the measurement made in the treated group (T) divided by the measurement made in the vehicle treated control group (C). The tumor model used in this assay is P388 Leukemia (intraperitoneal) in B6D2F1 (BDF1) mice
Inconclusive results and toxic doses are left out. Residues, ends and D or L forms follow the SMILES beside them. *: point of attachment. Cbz = O=C(OCc1ccccc1)*
Quick reference: T/C of the listed items.

molecule	T/C
O=C(NCCCl)N(CCCl)C(=O)Oc1c(Cl)cc(Cl)cc1Cl	100 % of control
Nc1nc2nc(N=Nc3ccc(Br)cc3)[nH]c2c(=O)[nH]1	100 % of control
CC(=O)C(C(C)=O)C(Cl)C(C(C)=O)C(C)=O	99 % of control
S=C1SCN(Cc2cccs2)CN1Cc1cccs1	95 % of control
COc1ccc(Cl)cc1NC(=O)NNC(=O)C(=O)Nc1ccc(F)cc1	100 % of control
O=C(O)C(Cc1ccccc1)NC(=O)C1CCCN1C(=O)OCc1ccccc1 (stereo not drawn) (Cbz-Pro-Phe-OH; configuration not given here)	95 % of control
COC(=O)c1cc(=O)nc(N/N=C/c2ccc(C)cc2)s1	99 % of control
O=c1c2ccccc2nnn1Cc1ccco1	89 % of control
O=C(NC(Cl)=C(Cl)Cl)P(=O)(c1ccccc1)c1ccccc1	95 % of control

----------
Quick reference: T/C of the listed items.
system: BDF1 mice, P388 leukemia ip, median survival T/C; assay: NCI In Vivo Anticancer Drug Screen. Data for tumor model P388 Leukemia (intraperitoneal) in B6D2F1 (BDF1) mice; settings: endpoint: median survival time; dose: 200.0 mg/kg/injection; schedule: Q04DX003 (ip); vehicle: water; higher = longer survival
Inconclusive results and toxic doses are left out.
quantity: T/C

compound	experimental-value
COc1cc(/C=C/C(=O)c2ccc3c(c2)OCO3)ccc1OCc1ccccc1	87 % of control
CCOC(=O)C(C(=O)COC)C(=O)OCC	115 % of control
CN=C(N)Nc1ccc(C(=O)Oc2ccc([N+](=O)[O-])cc2)cc1	113 % of control
C/C(=C/CC(=O)O)C(=O)O	122 % of control
CC1=CC(c2ccc3c(c2)OCO3)c2c(c3ccccc3oc2=O)O1 (stereo not given)	98 % of control
COc1ccc(C(CC(C)=O)c2c(O)c3ccccc3oc2=O)cc1OC (stereo not given)	101 % of control
OCCSc1ncc2cnccn12	109 % of control
CCOC(=O)CNCc1ccc(Cl)c(Cl)c1	111 % of control
CC(=O)n1ncc2ccc(N)cc21	101 % of control
CC(=O)Nc1ccc2[nH]c(C)cc(=O)c2c1	95 % of control

----------
system: BDF1 mice, P388 leukemia ip, median survival T/C; assay: NCI In Vivo Anticancer Drug Screen. Data for tumor model P388 Leukemia (intraperitoneal) in B6D2F1 (BDF1) mice; conditions: endpoint: median survival time; dose: 12.5 mg/kg/injection; schedule: Q01DX009 (ip); vehicle: saline with Tween-80
Toxic doses and inconclusive results are not listed. How the source made its calls: active means survival T/C of 150% or more; inactive means T/C below 125% in these data.
Labels: active, inactive

compound	group-label
OC(CC1CCCCN1)c1ccccc1 (configuration not stated)	inactive
O=[N+]([O-])c1ccc(N=Nc2c(Cl)cc(O)cc2Cl)cc1	inactive
NC(=O)Oc1cc(OC(N)=O)cc(N(CCCl)CCCl)c1	active
O=c1oc2ccccc2c(O)c1C(C/C(=N/O)c1ccccc1)c1ccccc1 (configuration not stated)	inactive
N#Cc1ccc(C[n+]2cccc3c([N+](=O)[O-])cccc32)cc1	inactive
CSc1nc([N+](=O)[O-])c2cnccn12	inactive
Clc1cc(Cl)c(CBr)cc1CBr	inactive

----------
system: BDF1 mice, P388 leukemia ip, median survival T/C; assay: NCI In Vivo Anticancer Drug Screen. Data for tumor model P388 Leukemia (intraperitoneal) in B6D2F1 (BDF1) mice; settings: endpoint: median survival time; dose: 2.0 mg/kg/injection; schedule: Q01DX009 (ip); vehicle: saline
Inconclusive results and toxic doses are left out. The calls were made as follows: active = survival T/C of 150% or more; inactive = T/C below 125% in these data.
Labels: active, inactive

molecule	group-label
CC(CCl)N(CCCl)Cc1cccc(Nc2ncnc3nc[nH]c23)c1 (stereo unspecified)	active
N=C(N)CCNC(=O)C1CCC(N)=N1 (stereo unspecified)	inactive
COC(=O)CC1(O)C=CC(=O)C=C1	active
C1CCC2C[N-]CCC2C1.C1CCC2C[N-]CCC2C1.C1CCC2C[N-]CCC2C1.C1CCC2C[N-]CCC2C1.[Cl][Rh][Cl] (stereo unspecified)	active
COc1ccc2nc3cc(Cl)ccc3c(Nc3ccc(O)c(CN(CCCl)CCCl)c3)c2c1	inactive
CCC[P+](c1ccccc1)(c1ccccc1)c1ccccc1	inactive

----------
test system: BDF1 mice, P388 leukemia ip, median survival T/C; assay: NCI In Vivo Anticancer Drug Screen. Data for tumor model P388 Leukemia (intraperitoneal) in B6D2F1 (BDF1) mice; settings: endpoint: median survival time; dose: 100.0 mg/kg/injection; schedule: Q04DX003 (ip); vehicle: saline with Tween-80; higher = longer survival
Inconclusive results and toxic doses are left out.
Quick reference: T/C of the listed items.
quantity: T/C

compound	experimental-value
O=C(CC(NC(=O)OCc1ccccc1)C(=O)O)OCc1ccccc1 (stereo not given)	104 % of control
C[C@]12C[C@@H](F)C(=O)C[C@@H]1CC[C@@H]1[C@@H]2CC[C@]2(C)[C@@H](O)CC[C@@H]12	110 % of control
BrCC(Br)CBr	100 % of control
CC(/C=C/c1ccccc1)=Nc1ccc(C)cc1	104 % of control
Clc1nc(Cl)c(Cl)nc1Cl	108 % of control
Cc1cc(C)nc(NNc2nc(C)cc(C)n2)n1	91 % of control
OC(CCl)COCC#Cc1ccccc1 (stereo not given)	115 % of control
CCCC(=O)C(CC)C(O)(C(F)(F)F)C(F)(F)F (stereo not given)	104 % of control
CCSCCCCSCC	104 % of control
COC(=O)c1cncc(C(=O)OC)c1	100 % of control
Cc1ccc(C)c(C(=O)C2CC2)c1	120 % of control
ClCCn1cnc2c(SCc3ccccc3Cl)ncnc21	100 % of control
COC(=O)c1ccc(Cn2ccc(=O)n(Cc3ccc(C(=O)OC)cc3)c2=O)cc1	100 % of control
CCCC(F)C(=O)OCC (stereo not given)	100 % of control
Cc1c(C)c([N+](=O)[O-])c(Br)c(C)c1[N+](=O)[O-]	104 % of control
CC(=O)[C@H]1CC[C@H]2[C@@H]3CCC4=CC(=O)[C@H](C)C[C@]4(C)[C@@]3(F)C(=O)C[C@]12C	120 % of control
CC(SC(C)c1ccccc1)c1ccccc1 (stereo not given)	108 % of control
CCCn1cnc2c(=S)nc[nH]c21	109 % of control
CCOC(=O)C(=O)c1c[nH]c2ccccc12	104 % of control
C(#CCN1CCCC1)CCCN1CCCC1	91 % of control
c1ccc2c3c(ccc2c1)Sc1ccc2ccccc2c1N3	104 % of control
COc1cc(/C=N\NC(C)=O)cc(OC)c1OC	90 % of control
CC(C)=CCC/C(C)=C/COC(=O)Cc1ccccc1	100 % of control
COc1cccc(C=O)c1OC	107 % of control
Cc1nnc2ncnn2c1N(C)c1ccccc1	95 % of control
CCCCNc1nc(N)nc(Nc2ccc(Br)cc2)c1N=O	86 % of control
CCCCSc1ncnc2c1ncn2C1CCCCO1 (stereo not given)	87 % of control
CCN(CC)CCNc1ncnc2c1cnn2-c1ccc(Cl)cc1	109 % of control
O=S(=O)(Nc1ccc(O)cc1)c1ccccc1	100 % of control
Cc1cccc(NC=O)c1	115 % of control
Cc1cc(=O)[nH]c2c1CCC2	100 % of control
COC(=O)c1cc2ccccc2o1	95 % of control
Cn1nc(N)c2ncc(C(Cl)(Cl)Cl)nc21	90 % of control
OC(CBr)c1ccc(Cl)cc1 (stereo not given)	100 % of control
CN(C)c1ccc(C=Nc2c(N)n(C)c(=O)n(C)c2=O)cc1	101 % of control
CC(=O)CC(=O)NC(C)CCc1ccccc1 (stereo not given)	104 % of control
CC(=O)c1c(C)oc(C)c1C(C)=O	103 % of control
CC(=O)C(C)(CCC#N)CCC#N	100 % of control
C[C@]12CC[C@H]3[C@@H](CCC4=CC(=O)CC[C@@H]43)[C@@H]1CC[C@@H]2OC(=O)CCc1ccccc1	86 % of control
O=C(O)c1cc(Br)c(Br)s1	100 % of control
CC(C)CC(Br)C(=O)NCC(=O)NC(Cc1ccccc1)C(=O)O (stereo not given)	100 % of control
CC(=O)c1ccc(NC(=O)C(F)(F)F)cc1	96 % of control
C=CCN(C)/N=N/c1[nH]ncc1C(N)=O	109 % of control
COC(=O)/C(C#N)=C(\C)CCC=C(C)C	87 % of control
COC(C)(OC)C(N)=O	100 % of control
COc1ccccc1NC(N)=O	105 % of control
CC(C)(S(=O)(=O)Oc1ccccc1)S(=O)(=O)Oc1ccccc1	93 % of control
C=CCC(CC)C(=O)Cl (stereo not given)	111 % of control
O=[N+]([O-])c1ccc(/C=N/c2ncc(Br)s2)o1	118 % of control
Cc1ccc(NS(=O)(=O)c2ccccc2)nc1	112 % of control
COC(=O)C1CN(c2ccccc2)N=C1C(C)=O (stereo not given)	89 % of control
CC(=O)CC(=O)N1CCCCCC1	109 % of control
CCc1ccc(C(=O)C2CC2)cc1	104 % of control
O=C1OC(c2ccccc2)=C/C1=C/c1ccccc1O	109 % of control
Nc1nc(=O)c2ccccc2s1	105 % of control
